experiment-description: NCI Yeast Anticancer Drug Screen. Data for the sgs1 mgt1 strain (AID 161)
condition: S. cerevisiae sgs1 mgt1 strain, at 50.0 µM
This is part of a sample that, as a whole, favours compounds with a hit. Of some 79,000 tested, about 15% had one in any assay. The source made the active and inactive calls. Cut-off read from the data, not from the text of the source: active = growth inhibition above about 70%; inactive = the rest.
Hi there, use one of these labels in your reply, thanks! active, inactive

Query: What is the recorded call for this compound in the test? Brc1ccc(N=Nc2ccc(-c3ccc[cH-]3)cc2)cc1.[Fe+2].c1cc[cH-]c1
Result: inactive

Query: Queued: C=C1C(=O)O[C@@H]2CC(CO)=C([C@@H](C)CCCO)[C@@H](OC(=O)/C(C)=C\C)[C@H]12
Result: active

Query: Likewise for O=C(O)COc1cc(Br)cc(Br)c1-c1ccccc1 ?
Result: active

Query: One more compound: CCCCCCCCCCCCCCCCCCOP(=O)([O-])OCC[N+](C)(C)C
Result: active

Query: Can you check O=C1/C(=C/c2cccc(O)c2)COc2ccccc21 next?
Result: active

Query: Similarly, N#CC1CCCC(Cc2ccccc2)(c2ccccc2)C1=O (stereo not given) ?
Result: active

Query: Please do the same for CCCCCCCCCCCCCCCC(=O)N1CCOCC1 as well.
Result: inactive

Query: Request: c1ccc(N=Nc2n[nH]c3ccccc23)cc1
Result: active

Query: Try this compound next: Clc1ccc(C2SCc3nc4ccccc4n32)c(Cl)c1 (stereo not given)
Result: active

Query: Another compound to look at: COc1ccc2c(c1)Cc1ccccc1C2=O
Result: inactive

Query: What about this compound? CC1=C(C(=O)NCc2ccccc2)C(c2ccccc2O)C(C(=O)NCc2ccccc2)=C(C)N1
Result: active

Query: What do you get for COc1cc(NCC(C)(O)CN2CCC(C)CC2C)c2ncccc2c1 (stereo not given) ?
Result: active

Query: Next compound: CC1(c2ccccc2)OC(=O)C=CC1=O (stereo not given)
Result: active

Query: // same read-out, input: CCCCCCC(Sc1n[nH]c(=O)[nH]c1=O)C(=O)OCC (stereo not given)
Result: active

Query: Same thing, different compound: CC1(C)C(=O)N(CCCCCCN2C(=O)C(C)(C)c3ccccc32)c2ccccc21
Result: active

Query: // next record CCCCCCCCCCCCCCCCCCSSCCCCCCCCCCCCCCCCCC
Result: inactive

Query: Entry to check: CC1CCC2(CC1)NC1=C(CC(C)CC1)C1=C2CC(C)CC1 (stereo not given)
Result: inactive

Query: Now this one: COc1ccc(N=N/N=c2\sc3cc(Cl)ccc3n2C)cc1
Result: inactive

Query: Follow-up entry: COc1c(O)cc(C=O)cc1[N+](=O)[O-]
Result: inactive

Query: Input COc1ccccc1NC(=O)/C(=C/c1ccccc1)C(C)=O
Result: inactive

Query: Please give the result for Cc1ccc(NC(=S)SCc2ccc3c(c2)OCO3)cc1Br too.
Result: active

Query: # repeat for C/C=C/C(=O)NCC(C(C)C)/[N+]([O-])=N/O (stereo not given)
Result: active

Query: Let us now turn to N#C/C(=C\NC(=S)C(N)=S)c1nc2ccccc2s1
Result: active

Query: Same read-out for O=C1C(=O)C(CCCO)(CCCO)CCCCCCCCC1(CCCO)CCCO ?
Result: inactive

Query: Another compound to look at: O=C(O)c1ccc(Br)cc1C(=O)c1ccccc1
Result: inactive

Query: Note, next up: Cc1ccc(S(=O)(=O)NNC2Oc3cc4c(cc3C(c3ccccc3O)C2C)OCO4)cc1 (stereo not given)
Result: active

Query: Another compound to look at: Nc1cccc2c(O)cccc12
Result: inactive

Query: CN(C)Cc1ccc2[nH]c3c(c2c1)CCCC3 , same question.
Result: inactive

Query: What do we get for Cc1ccccc1NC(=O)c1cc2cc(N=Nc3ccccc3C(=O)O)ccc2oc1=O ?
Result: active

Query: Next record, please: CCOC(=O)Cc1csc(/N=C\c2c(O)c3ccccc3oc2=O)n1
Result: inactive

Query: Consider next the compound CCCN(CCC)C(=S)N/N=C/c1cccc(C)n1 in the same way.
Result: active

Query: And CCc1ccccc1NC(=O)C(=O)C(C#N)c1c(Cl)cccc1Cl (stereo not given) ?
Result: inactive

Query: Okay, and CC(C)c1ccc(O)c(O)c(=O)c1 ?
Result: active

Query: Do the same for O=C(Nc1cccc2ccccc12)OCC1CCc2ccccc2C1 (stereo not given) please
Result: inactive

Query: What about this compound? CC(C)(C)OC(=O)Nc1cccc(Cl)c1
Result: inactive
